Tested on: PC3 cells
Assay: PC3 growth inhibition (Cell-titer glo, 72 hours)
Assay type: cell-based
Test parameters: Homo sapiens, PC-3, 72 h, read-out: Percent Viability, PC3 cells, compound concentration 1.667 μM, 72 hours
Value kind: viability at 1.667 µM (%)
Write the value in % as a bare number.

Fill in the recorded viability at 1.667 µM for this molecule, with PC3 cells as test system: COCCOc1cc(-c2ccc(F)cc2)nc2cc(C(=O)NCCCc3n[nH]nc3C)ccc12 [Compound I-66]
2

Now try CCOc1cc(-c2ccc(F)cc2)nc2cc(C(=O)NCCc3cnn[nH]3)ccc12 [Compound I-107] .
2

Now try CCOc1cc(-c2ccc(F)cc2)nc2cc(C(=O)NCCCc3cncn3C)ccc12 [Compound I-224] .
2

Now try CCOc1cc(-c2ccnc(OC)c2)nc2cc(C(=O)NCCCc3ccn[nH]3)ccc12 [Compound I-155] .
2

Now try CCOc1cc(-c2ccc(F)cc2)nc2cc(C(=O)NCCCc3c[nH]nc3C)ccc12 [Compound I-201] .
3

Now try CCOc1cc(-c2ccc(F)cc2)nc2cc(C(=O)NCCc3ccc(C#N)cc3)ccc12 [Compound I-47] .
99

Now try COCCOc1nc(-c2ccc(F)cc2)nc2cc(C(=O)NCCCc3ncc[nH]3)ccc12 [Compound I-37] .
2

Now try CCOc1cc(-c2cc(OC)ncc2F)nc2cc(C(=O)NCCCc3nnc[nH]3)ccc12 [Compound I-225] .
2

Now try CCOc1cc(-c2ccnc(C)c2)nc2cc(C(=O)NCCc3cnn[nH]3)ccc12 [Compound I-181] .
9

Now try COc1nc(-c2ccc(Cl)cc2)nc2cc(C(=O)NCCCc3ncc[nH]3)ccc12 [Compound I-10] .
1

Now try CCOc1cc(-c2ccc(F)cc2)nc2cc(C(=O)NCCc3nnc(N)[nH]3)ccc12 [Compound I-142] .
14

Now try CCOc1cc(-c2ccc(F)cc2)nc2cc(C(=O)NCCCc3ccc(C)nc3)ccc12 [Compound I-227] .
6

Now try CCOc1cc(-c2cc(OC)ncc2F)nc2cc(C(=O)NCCCc3ncc[nH]3)ccc12 [Compound I-12] .
1

Now try CC(C)Oc1nc(-c2ccc(F)cc2)nc2cc(C(=O)NCCCc3ncc[nH]3)ccc12 [Compound I-36] .
2

Now try CCOc1cc(-c2cc(F)ccc2OC)nc2cc(C(=O)NCc3nc4cnccc4[nH]3)ccc12 [Compound I-187] .
3

Now try CCc1nc(-c2ccc(Cl)s2)nc2cc(C(=O)NCCCc3ncc[nH]3)ccc12 [Compound I-22] .
1
